Each recorded value in this set is attributed to paper PMC9687286.

Assay: Cell viability assay (resazurin) for Vero cells
Details: African green monkey, confluent Vero cell monolayers
metric-name: CC50 at 5 days (µM)
Return type: number; implicit unit µM.

CCCCCCOC(=O)c1c(Cl)c(Cl)c(Cl)c(Cl)c1-c1c2cc(I)c(=O)c(I)c-2oc2c(I)c(O)c(I)cc12 [2b] | 60

// query Consider the compound shown here: CCCCCCCCOC(=O)c1c(Cl)c(Cl)c(Cl)c(Cl)c1-c1c2cc(I)c(=O)c(I)c-2oc2c(I)c(O)c(I)cc12 [2c] What is its recorded CC50 at 5 days?
// result 53

----------
CC50 at 5 days for assorted compounds
Assay: Cell viability assay (resazurin) for Vero cells
Settings: African green monkey, confluent Vero cell monolayers
Where a name gives a salt, the structure may show the parent alone.
Value expressed in µM; do not type the unit.

CCCCOC(=O)c1c(Cl)c(Cl)c(Cl)c(Cl)c1-c1c2cc(I)c(=O)c(I)c-2oc2c(I)c(O)c(I)cc12 [2a] | 8
CCCCCCCCCCOC(=O)c1c(Cl)c(Cl)c(Cl)c(Cl)c1-c1c2cc(I)c(=O)c(I)c-2oc2c(I)c(O)c(I)cc12 [2d] | 60

// query Entry O=C(O)c1c(Cl)c(Cl)c(Cl)c(Cl)c1-c1c2cc(I)c(=O)c(I)c-2oc2c(I)c(O)c(I)cc12 [compound 1, Rose Bengal, disodium salt, reference compound] has what CC50 at 5 days?
// result 43

----------
Experiment: Cell viability assay for MT-4 cells
Details: human
Catalogue of molecules with associated CC50 at 7 days
Your answer is read as µM, so omit the unit and give the number.

For orientation, consider the following solved cases.
CCCCCCCCOC(=O)c1c(Cl)c(Cl)c(Cl)c(Cl)c1-c1c2cc(I)c(=O)c(I)c-2oc2c(I)c(O)c(I)cc12 | 42
CCCCCCCCCCOC(=O)c1c(Cl)c(Cl)c(Cl)c(Cl)c1-c1c2cc(I)c(=O)c(I)c-2oc2c(I)c(O)c(I)cc12 | 42
CCCCOC(=O)c1c(Cl)c(Cl)c(Cl)c(Cl)c1-c1c2cc(I)c(=O)c(I)c-2oc2c(I)c(O)c(I)cc12 | 15

--- query ---
// query Given the entry CCCCCCOC(=O)c1c(Cl)c(Cl)c(Cl)c(Cl)c1-c1c2cc(I)c(=O)c(I)c-2oc2c(I)c(O)c(I)cc12 , report its measured CC50 at 7 days.
// result 15

----------
Test: Cell viability assay for RD cells
Details: human
Counter-ions that a name gives are not always drawn.
metric-name: CC50 at 5 days

CCCCCCOC(=O)c1c(Cl)c(Cl)c(Cl)c(Cl)c1-c1c2cc(I)c(=O)c(I)c-2oc2c(I)c(O)c(I)cc12 | 21.3 µM

// query For CCCCCCCCCCOC(=O)c1c(Cl)c(Cl)c(Cl)c(Cl)c1-c1c2cc(I)c(=O)c(I)c-2oc2c(I)c(O)c(I)cc12 , what is its reported CC50 at 5 days?
// result 10.7 µM

// query Query: CC50 at 5 days; subject: CCCCCCCCOC(=O)c1c(Cl)c(Cl)c(Cl)c(Cl)c1-c1c2cc(I)c(=O)c(I)c-2oc2c(I)c(O)c(I)cc12
// result 21.3 µM

// query Consider the compound CCCCCCCCCCCCOC(=O)c1c(Cl)c(Cl)c(Cl)c(Cl)c1-c1c2cc(I)c(=O)c(I)c-2oc2c(I)c(O)c(I)cc12 and give its measured CC50 at 5 days.
// result 21.3 µM

// query I would be grateful if you could share the reported CC50 at 5 days for O=c1nc(NO)ccn1[C@@H]1O[C@H](CO)[C@@H](O)[C@H]1O [NHC, N^4-hydroxycytidine, reference compound] .
// result > 100 µM

// query Looking for the measured CC50 at 5 days of CCCCOC(=O)c1c(Cl)c(Cl)c(Cl)c(Cl)c1-c1c2cc(I)c(=O)c(I)c-2oc2c(I)c(O)c(I)cc12 , can you help?
// result 21.3 µM

// query Give the measured CC50 at 5 days of O=C(O)c1c(Cl)c(Cl)c(Cl)c(Cl)c1-c1c2cc(I)c(=O)c(I)c-2oc2c(I)c(O)c(I)cc12 [compound 1, Rose Bengal, disodium salt, reference compound] .
// result 43 µM
